# Lookup of reported normalized growth keyed by entry
- Measurement notes: chemical genetic growth profiling, strain panel (AID 1159580);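 note: tested at 20 µM; growth read once vehicle control cultures reached saturation at 30 °C; 1 = growth at the plate median or of vehicle wells; lower values mean less growth of the strain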
- Cond: S. cerevisiae deletion strains, growth OD, locus YER167W, strain BCK2, active compounds read low
Hit rate of the full screen: of about 5,500 compounds, about 2,000 (36%) were called active. Inconclusive results (about 18%) are left out. Some of the results follow.
Outcome measure: normalized growth

In [3]: df
Out[3]:
                                   molecule    outcome_measure  reading
0  COc1ccc2c(c1)OCC(Cc1ccc(OC)c(OC(C)=O)c1)C2=O (configuration not stated)  normalized growth    0.993
1  CC(C)=CC1C(C(=O)OCc2cccc(Oc3ccccc3)c2)C1(C)C (configuration not stated)  normalized growth     0.99
2  CC1CCC(NC(=O)N(CCCl)N=O)CC1 (configuration not stated)  normalized growth    0.938
3        COP(=S)(OC)Oc1ccc([N+](=O)[O-])cc1  normalized growth    0.979
4                      O=NN(CCCl)C(=O)NCCCl  normalized growth     1.02
5             CC(=O)N[C@@H](CCC(=O)O)C(=O)O  normalized growth     1.01
6  CC(=O)O[C@@H]1CC2C(C)(C)C(=O)C3OC3[C@]2(C)C2CC[C@@]3(C)[C@H](c4ccoc4)OC(=O)C4OC43[C@@]21C (some centres not stated)  normalized growth     1.01

----------
- Measurement notes: chemical genetic growth profiling, strain panel (AID 1159580)
- Cond: S. cerevisiae deletion strains, growth OD, locus YDR502C, strain sam2, active compounds read low
About 2,000 (36%) of roughly 5,500 compounds were called active. Inconclusive results (about 18%) are left out. Some of the results follow.
Outcome measure: normalized growth

Molecule	Outcome measure	Reading
C1N2CN3CN1CN(C2)C3	normalized growth	0.966
NC1(C(=O)O)CCCC1	normalized growth	0.99
CC(=O)O[C@@H]1CC2C(C)(C)[C@H](O)CC[C@]2(C)C2CC[C@@]3(C)[C@H](c4ccoc4)OC(=O)C4OC43[C@@]21C (stereo not given in full)	normalized growth	1.01
Oc1c(Cl)cc(Cl)c(Cl)c1Cc1c(O)c(Cl)cc(Cl)c1Cl	normalized growth	0.0651
COC(=O)[C@@H]1OC(=O)C2OC23[C@@]1(C)CCC1[C@]2(C)C(C[C@@H](O)[C@]13C)C(C)(C)[C@H](OC(C)=O)C[C@@H]2OC(C)=O (stereo not given in full)	normalized growth	1

----------
- Measurement notes: chemical genetic growth profiling, strain panel (AID 1159580);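 note: tested at 20 µM; growth read once vehicle control cultures reached saturation at 30 °C; 1 = growth at the plate median or of vehicle wells; lower values mean less growth of the strain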
- Cond: S. cerevisiae deletion strains, growth OD, locus YGL240W, strain doc1, active compounds read low
Out of some 5,500 compounds screened, about 2,000 (36%) were called active. Not shown: some 18% with an inconclusive outcome. The list shows a part of the results.
Outcome measure: normalized growth

Compound	Reading
CC1OC(O[C@H]2/C=C/C=C/C=C/C=C/C=C/C=C/C=C/[C@H](C)[C@@H](O)[C@@H](C)[C@H](C)OC(=O)CC(O)CC(O)CCC(O)C(O)CC(O)C[C@]3(O)C[C@H](O)C(C(=O)O)C(C2)O3)C(O)[C@H](N)C1O (some centres not stated)	0.856
CC1[C@H](C)OC(=O)CC(O)CC(O)CC(O)CCC(O)C(O)C[C@]2(O)CC(O)C(C(=O)O)C(CC(OC3O[C@H](C)[C@@H](O)[C@H](N)[C@@H]3O)/C=C/C=C/C=C/C=C/CC/C=C/C=C/[C@H](C)[C@H]1O)O2 (some centres not stated)	0.537
CC(=O)O[C@@H]1CC2C(C)(C)[C@@H](O)CC[C@]2(C)C2CC[C@@]3(C)[C@H](c4ccoc4)OC(=O)[C@H]4O[C@]43[C@@]21C (some centres not stated)	0.966
CC(C)c1nc(N(C)S(C)(=O)=O)nc(-c2ccc(F)cc2)c1/C=C/[C@@H](O)C[C@@H](O)CC(=O)O	1.03
CC(=O)N[C@@H](CCC(=O)O)C(=O)O	1.01
O=NN(CCCl)C(=O)NCCCl	0.682
COc1cc2c(cc1OC)C1(O)C(=O)c3ccc(O)c(C(=O)O)c3OC1CO2 (configuration not stated)	1.01

----------
# Lookup of reported normalized growth keyed by entry
- Measurement notes: chemical genetic growth profiling, strain panel (AID 1159580);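 note: tested at 20 µM; growth read once vehicle control cultures reached saturation at 30 °C; 1 = growth at the plate median or of vehicle wells; lower values mean less growth of the strain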
- Cond: S. cerevisiae deletion strains, growth OD, locus YCL061C, strain MRC1, active compounds read low
Out of some 5,500 compounds screened, about 2,000 (36%) were called active. Another 18% or so got no clear call; they are omitted. The list shows a part of the results.

Compound	normalized growth
CCCCCCCCCCCCCC(=O)OC1C(C)C2(O)C(C=C(CO)CC3(O)C(=O)C(C)=CC32)C2C(C)(C)C12OC(C)=O (stereo not drawn)	0.987 (inactive)
CC(=O)O[C@H]1C[C@@H](OC(C)=O)C(C)(C)C2C[C@@H](OC(C)=O)[C@]3(C)C(CC[C@@]4(C)[C@H](c5ccoc5)OC(=O)[C@H]5O[C@]543)[C@]21C (stereo partly drawn)	1 (inactive)
NC1(C(=O)O)CC1	1.02 (inactive)
COC[C@]12CN(C=O)C3[C@@H]4[C@H](OC)C1[C@]3(C1CC3(O)C(OC)C(O)C4(OC(C)=O)C1C3OC(=O)c1ccccc1)[C@@H](OC)C[C@H]2O (stereo partly drawn)	1.02 (inactive)
Fc1ccc([C@@H]2CCNC[C@H]2COc2ccc3c(c2)OCO3)cc1	0.998 (inactive)
COC(=O)[C@@H]1OC(=O)C2OC23[C@@]1(C)CCC1[C@@]2(C)CCC(=O)C(C)(C)C2C[C@@H](OC(C)=O)[C@]13C (stereo partly drawn)	1.01 (inactive)
CN(C)C(=O)Oc1ccc[n+](C)c1	1.01 (inactive)
O=C1C2C3C=CC(C3)C2C(=O)N1c1ccc(F)c(F)c1 (stereo not drawn)	0.986 (inactive)
Cc1ccc(C(=O)c2ccc(CC(=O)O)n2C)cc1	0.995 (inactive)
Nc1ncnc(SCc2ccc(Cl)cc2)n1	1.02 (inactive)
FC(F)(F)c1cccc(N2CCNCC2)c1	1 (inactive)
C[C@H]1C[C@@H](O)[C@]2(O)[C@@]13CC(=O)OC[C@@]2(C)[C@](C)(O)C(=O)C3	1.02 (inactive)
CN(C)c1ccc(-c2n[nH]c(=O)c3ccccc23)cc1[N+](=O)[O-]	0.98 (inactive)
C=C1C(=O)[C@]23[C@H](O)[C@H]1CC[C@H]2[C@@]12CO[C@]3(O)[C@H](O)[C@@H]1C(C)(C)CC[C@@H]2O	1 (inactive)
CC(=O)O[C@H]1C[C@@]2(C)[C@@H](C[C@@H](O)C3[C@]2(C)CC[C@H]2[C@H](C)[C@H](O)CC[C@]32C)/C1=C(/CCC=C(C)C)C(=O)O (stereo partly drawn)	1.02 (inactive)
CCOC(=O)C(=CNNS(=O)(=O)c1cc(C(F)(F)F)cc(C(F)(F)F)c1)C(=O)OCC	0.979 (inactive)
CC1(C)N([O-])[N+](=O)C1(C)Br (stereo not drawn)	1 (inactive)
O=C(CN1CCOCC1)Nc1cc(C(F)(F)F)cc(C(F)(F)F)c1	1.01 (inactive)
Clc1ccccc1CN1CCc2sccc2C1	1.01 (inactive)
CC(=O)NC(CCC(=O)O)C(=O)O (stereo not drawn)	0.984 (inactive)
NC(N)=NCCCCN=C(N)N	1 (inactive)
NC1(C(=O)O)CCCC1	1.02 (inactive)
COC(=O)/C(C)=C\CC12OC(C)(C)C3CC(C=C4C(=O)c5c(OC)c6c(c(CC=C(C)C)c5OC431)OC(C)(CCC=C(C)C)C=C6)C2=O (stereo not drawn)	1.01 (inactive)

----------
- Measurement notes: chemical genetic growth profiling, strain panel (AID 1159580);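 note: tested at 20 µM; growth read once vehicle control cultures reached saturation at 30 °C; 1 = growth at the plate median or of vehicle wells; lower values mean less growth of the strain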
- Cond: S. cerevisiae deletion strains, growth OD, locus YOR119C, strain RIO1, active compounds read low
Hit rate of the full screen: of about 5,500 compounds, about 2,000 (36%) were called active. Inconclusive results (about 18%) are left out. The list shows a part of the results.
Mark 1.0 only for normalized growth values smaller than 0.8; exact matches and larger values are 0.0.

In [3]: df
Out[3]:
                                smiles_text  label_value
0              O=c1oc2ccccc2cc1[N+](=O)[O-]          1.0
1  Cc1noc(C)c1S(=O)(=O)Nc1csc(C(F)(F)F)c1-c1ccccc1          0.0
2  COc1ccc(Nc2nc(NC(=O)Nc3ccc(Cl)cc3)n[nH]2)cc1          0.0
3  O=S(=O)(NCc1ccc(C(F)(F)F)cc1)c1cc(Br)c(Br)s1          1.0
4  O=C(NNc1ccccc1)c1cc(-c2ccc(Cl)cc2)oc1C(F)(F)F          1.0
5           Brc1ccc(-c2csc(-c3cccnc3)n2)cc1          1.0
6             Clc1ccccc1-c1csc(-c2cccnc2)n1          1.0
7         N#Cc1ccc(Oc2sccc2[N+](=O)[O-])cc1          0.0
